Molecular target: Nur77 (Homo sapiens)
Construct: Nur77 (uniprot entry: hNUR77–P22736, residues 358–598); expressed in transfected cells; host or cells: HEK293T
Sequence (P22736 358-598): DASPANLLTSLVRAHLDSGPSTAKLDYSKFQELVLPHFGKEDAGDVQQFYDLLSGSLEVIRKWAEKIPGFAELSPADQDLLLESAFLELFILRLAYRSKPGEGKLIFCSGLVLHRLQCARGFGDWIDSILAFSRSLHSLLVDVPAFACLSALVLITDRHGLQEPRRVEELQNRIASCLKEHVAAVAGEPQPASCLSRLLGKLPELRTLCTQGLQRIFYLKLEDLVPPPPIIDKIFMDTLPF
Assay: Gal4-Nur77 hybrid reporter gene assay in HEK293T cells
Type: cell-based
Details: 10 µM; primary screen; n ≥ 2; ^# not significant vs VP16 control
Value type: Nur77 activity 10μM (mean fold activation) (fold)
Provide the reading as a plain figure in fold.

Compound	Units text	Number
CC(C(=O)O)c1ccc(C(=O)c2ccccc2)s1 (stereo not shown)	fold	1.35

Next compound, please.
Q: Quick check: Nur77 activity 10μM (mean fold activation) of `CN1C(C(=O)Nc2ccccn2)=C(O)c2sc(Cl)cc2S1(=O)=O` ?
A: 0.86

The values you see were collected from paper PMC9814838.
